test system: iCell endothelial cells (human iPSC-derived ECs); test: Tube formation (tubulogenesis) assay in iCell endothelial cells, 18 h; assay type: cell-based; settings: Homo sapiens, Endothelial cell, endothelial cells (endo), tube formation ttl, 18 hr, read-out: POD endo.ttl.18hr
Counter-ions that a name gives are not always drawn.
Listed molecules paired with reported minimal effective concentration

{"columns": ["molecule", "systemName", "minimal effective concentration (µM)"],
 "data": [
  ["Clc1cccc(-c2cccc(Cl)c2)c1", "iCell endothelial cells (human iPSC-derived ECs)", 100],
  ["COc1ccc(-c2ccc(Cl)cc2)cc1", "iCell endothelial cells (human iPSC-derived ECs)", 7.16],
  ["Oc1ccccc1-c1ccc(Cl)cc1", "iCell endothelial cells (human iPSC-derived ECs)", 23.1],
  ["O=S(=O)(O)Oc1ccc(-c2ccc(Cl)cc2)cc1 [4'-PCB 3 sulfate]", "iCell endothelial cells (human iPSC-derived ECs)", 11],
  ["Clc1cc(Cl)c(-c2cc(Cl)c(Cl)cc2Cl)cc1Cl", "iCell endothelial cells (human iPSC-derived ECs)", 0.58],
  ["O=S(=O)(O)Oc1cc(-c2ccccc2)ccc1Cl [3-PCB 3 sulfate]", "iCell endothelial cells (human iPSC-derived ECs)", 100],
  ["COc1ccc(-c2cccc(Cl)c2)cc1Cl", "iCell endothelial cells (human iPSC-derived ECs)", 0.00197]
]}

###

Listed compounds paired with reported minimal effective concentration
test system: iCell cardiomyocytes (human iPSC-derived cardiomyocytes); assay: High-content imaging of cytotoxicity and mitochondrial integrity in iPSC-CMs; format: cell-based; details: Homo sapiens, Cardiomyocyte, 24 h, cardiomyocytes (cm), tc, 24 hrs; read-out: POD cm.tc.24hrs
propertyMeasured: minimal effective concentration

{"columns": ["compound", "measured"],
 "data": [
  ["Clc1ccc(Cl)c(-c2c(Cl)ccc(Cl)c2Cl)c1 [PCB 95, 2,2′,3,5′,6-pentachlorobiphenyl]", "8.75 µM"],
  ["COc1cc(Cl)c(-c2cc(Cl)ccc2Cl)cc1Cl [4-OMe-PCB 52, 4-methoxy-2,2′,5,5′-tetrachlorobiphenyl]", "35 µM"],
  ["COc1ccc(-c2cccc(Cl)c2)cc1Cl [4-OMe-PCB 11, 4-methoxy-3,3′-dichlorobiphenyl]", "33.4 µM"],
  ["Oc1ccc(-c2ccc(Cl)cc2)cc1 [4'-OH-PCB 3]", "38.4 µM"]
]}

###

system: HUVECs; test: High-content imaging cytotoxicity in HUVECs, 24 h; type: cell-based, human; conditions: Homo sapiens, HUVEC, 24 h, HUVECs, 24 hr, 0.01 µM; 0.00 µM = 100.00; read-out: huvec.nma.24hr
Where a name gives a salt, the structure may show the parent alone.
Listed compounds paired with reported activity at 0.01 µM
propertyMeasured: activity at 0.01 µM (%)

{"columns": ["compound", "propertyMeasured", "measured"],
 "data": [
  ["COc1ccc(-c2cccc(Cl)c2)cc1Cl [4-OMe PCB11]", "activity at 0.01 µM", 96.3],
  ["O=S(=O)(O)Oc1cc(-c2ccccc2)ccc1Cl [3-yl PCB 3 sulfate]", "activity at 0.01 µM", 96.6],
  ["Clc1ccc(Cl)c(-c2cc(Cl)ccc2Cl)c1 [PCB52]", "activity at 0.01 µM", 101],
  ["O=S(=O)(O)Oc1cccc(-c2ccc(Cl)cc2)c1 [3'-yl PCB 3 sulfate]", "activity at 0.01 µM", 100],
  ["Oc1ccc(-c2cccc(Cl)c2)cc1Cl [4-OH PCB11]", "activity at 0.01 µM", 95.3]
]}

###

System: HUVECs
Test: High-content imaging cytotoxicity in HUVECs, 24 h
Format: cell-based, human
Conditions: Homo sapiens, HUVEC, 24 h, HUVECs, 24 hr, 1.00 µM; 0.00 µM = 100.00; read-out: huvec.mitoint.24hr
Experimental: Similar to the cultivation of iCell®-endothelial cells, HUVEC maintenance and experimentation are detailed elsewhere ([Iwata et al. 2017]). […] Cytotoxicity was assessed in parallel experiments. […] Phenotypic responses were quantitatively assessed using concentration–response modeling as detailed elsewhere ([Sirenko et al. 2017]). Briefly, phenotypic readouts were normalized to vehicle controls and fit to a four-parameter logistic model in R studio software (version 3.1.1; R Development Core Team). […]
Where a name gives a salt, the structure may show the parent alone.
propertyMeasured: activity at 1 µM (%)

{"columns": ["compound", "propertyMeasured", "unitsOfMeasure", "measured"],
 "data": [
  ["O=S(=O)(O)Oc1cc(Cl)ccc1-c1ccccc1 [2-yl PCB 3 sulfate]", "activity at 1 µM", "%", 92.6],
  ["COc1ccc(-c2cccc(Cl)c2)cc1Cl", "activity at 1 µM", "%", 103],
  ["Oc1ccc(O)c(-c2ccc(Cl)cc2)c1", "activity at 1 µM", "%", 104],
  ["Clc1ccc(Cl)c(-c2cc(Cl)ccc2Cl)c1", "activity at 1 µM", "%", 106],
  ["O=S(=O)(O)Oc1cc(-c2ccccc2)ccc1Cl [3-yl PCB 3 sulfate]", "activity at 1 µM", "%", 93.8],
  ["Oc1cccc(-c2ccc(Cl)cc2)c1", "activity at 1 µM", "%", 104],
  ["COc1ccc(-c2ccc(Cl)cc2)cc1", "activity at 1 µM", "%", 91],
  ["Oc1ccc(-c2ccc(Cl)cc2)cc1", "activity at 1 µM", "%", 107],
  ["O=S(=O)(O)Oc1ccc(-c2cccc(Cl)c2)cc1Cl [4-yl PCB 11 sulfate]", "activity at 1 µM", "%", 99.3],
  ["Oc1cc(Cl)cc(-c2cccc(Cl)c2)c1", "activity at 1 µM", "%", 101],
  ["O=S(=O)(O)Oc1cc(Cl)c(-c2cc(Cl)ccc2Cl)cc1Cl [4-yl PCB 52 sulfate]", "activity at 1 µM", "%", 107],
  ["Clc1ccc(-c2ccccc2)cc1", "activity at 1 µM", "%", 97.5],
  ["Oc1ccccc1-c1ccc(Cl)cc1", "activity at 1 µM", "%", 107]
]}

###

test system: iPSC-CMs, iPSC-ECs and HUVECs phenotypes; test: ToxPi 2.0 integration of POD values and physicochemical descriptors; parameters: species or system human; settings: ToxPi-scaled (0-1) score; iPSC cardiomyocytes, 90 min
Where a name gives a salt, the structure may show the parent alone.

{"columns": ["compound", "cm.cam.90min"],
 "data": [
  ["Clc1ccc(-c2ccccc2)cc1 [PCB 3, 4-chlorobiphenyl]", 0.5745],
  ["Oc1ccccc1-c1ccc(Cl)cc1 [2'-OH-PCB 3]", 0.4595],
  ["O=S(=O)(O)Oc1cc(Cl)c(-c2cc(Cl)ccc2Cl)cc1Cl [4-PCB 52 sulfate]", 0.9201],
  ["O=C1C=CC(=O)C(c2ccc(Cl)cc2)=C1 [4-Cl-BQ, 2-(4-Chlorophenyl)benzo-2,5-quinone]", 0.4034],
  ["Oc1cc(Cl)c(-c2cc(Cl)ccc2Cl)cc1Cl [4-OH-PCB 52]", 1],
  ["Oc1ccc(-c2cccc(Cl)c2)cc1Cl [4-OH-PCB 11]", 0.5301],
  ["COc1ccc(-c2cccc(Cl)c2)cc1Cl [4-OMe-PCB 11, 4-methoxy-3,3′-dichlorobiphenyl]", 0.4476],
  ["Clc1ccc(Cl)c(-c2c(Cl)ccc(Cl)c2Cl)c1Cl [(-)-PCB 136, 2,2′,3,3′,6,6′-hexachlorobiphenyl]", 0.908],
  ["Clc1cccc(-c2cccc(Cl)c2)c1 [PCB 11, 3,3′-Dichlorobiphenyl]", 0.6939],
  ["COc1cc(Cl)c(-c2cc(Cl)ccc2Cl)cc1Cl [4-OMe-PCB 52, 4-methoxy-2,2′,5,5′-tetrachlorobiphenyl]", 0.5317]
]}

###

system: iCell cardiomyocytes (human iPSC-derived cardiomyocytes); assay: High-content imaging of cytotoxicity and mitochondrial integrity in iPSC-CMs; format: cell-based; settings: Homo sapiens, Cardiomyocyte, 24 h, 0.01 µM; 0.00 µM = 100.00; read-out: cm.cam.24hrs
Structures can show the parent of a compound that is named as a salt.
propertyMeasured: viability at 0.01 µM

{"columns": ["compound", "systemName", "measured"],
 "data": [
  ["Clc1cccc(-c2cccc(Cl)c2)c1", "iCell cardiomyocytes (human iPSC-derived cardiomyocytes)", "103%"],
  ["O=S(=O)(O)Oc1cc(Cl)ccc1-c1ccccc1 [2-yl PCB 3 sulfate]", "iCell cardiomyocytes (human iPSC-derived cardiomyocytes)", "99.2%"],
  ["O=S(=O)(O)Oc1cc(-c2ccccc2)ccc1Cl [3-yl PCB 3 sulfate]", "iCell cardiomyocytes (human iPSC-derived cardiomyocytes)", "87.7%"],
  ["O=C1C=CC(=O)C(c2ccc(Cl)cc2)=C1", "iCell cardiomyocytes (human iPSC-derived cardiomyocytes)", "92.6%"],
  ["Oc1ccccc1-c1ccc(Cl)cc1", "iCell cardiomyocytes (human iPSC-derived cardiomyocytes)", "95.1%"],
  ["Oc1cc(Cl)cc(-c2cccc(Cl)c2)c1", "iCell cardiomyocytes (human iPSC-derived cardiomyocytes)", "99%"],
  ["O=S(=O)(O)Oc1cccc(-c2ccc(Cl)cc2)c1 [3'-yl PCB 3 sulfate]", "iCell cardiomyocytes (human iPSC-derived cardiomyocytes)", "97.1%"],
  ["O=S(=O)(O)Oc1ccc(-c2cccc(Cl)c2)cc1Cl [4-yl PCB 11 sulfate]", "iCell cardiomyocytes (human iPSC-derived cardiomyocytes)", "88.6%"]
]}
